I'd be grateful if you could share measured Kd for these entries.
Target: T1, Human CD138 His (human, UniProt P18827 23-254)
T1 construct: also called hCD138
T1 sequence: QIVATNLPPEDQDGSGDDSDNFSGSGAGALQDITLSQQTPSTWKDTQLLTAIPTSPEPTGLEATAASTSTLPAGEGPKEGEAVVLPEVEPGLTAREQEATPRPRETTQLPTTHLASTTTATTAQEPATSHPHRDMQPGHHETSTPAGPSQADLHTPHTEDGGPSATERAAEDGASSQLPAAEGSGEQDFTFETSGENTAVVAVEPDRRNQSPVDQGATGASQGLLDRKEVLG
Experiment: SPR, summary table

Exercise: State the recorded Kd for this entry: F11AP11E5 (antibody, V domains shown, Murine IgG purified from hybridoma supernatant) VH: QVQLQQSGAELVKPGASVKLSCKASGYTFTNYYMYWVKQRPGQGLEWIGEINPGNGGTNFNEKFKNKATLTVDKSSSTAYMQLSSLTSEDSAVYYCTTRFAYWGQGTLVIVSA VL: DVVMTQTPLSLSVTIGQPASISCKSGQSLLYSNGKTYLTWLQQRPGQAPKLLMYQVSKLDPGIPDRFSGSGSETDFTLKISRVEAEDLGVYYCLQNTYYPHTFGAGTKLELKR
Solution: 92 nM

Exercise: State the recorded Kd for this entry: F12P7G11 (antibody, V domains shown, Murine IgG purified from hybridoma supernatant) VH: QVQLQQSGAELARPGASVKLSCKASGYTFSSHWMQWVKQRPGQGLEWIGAIYPGDGDTRFTQKFKGKATLTADKSSNTAYMQLSSLASEDSAVYYCARGIYYDRSRAMDYWGQGTSVTVSS VL: QIVLSQSPAILSASPGEKVTMTCRASSSVNYMHWYQQKPGSSPKHWIYATSYLASGVPARFSGSGSGTSYSLTISRVEAEDAATYYCQQWSSDPLTFGAGTKLELKR
Solution: 9 nM

Exercise: State the recorded Kd for this entry: F13P30A7 (antibody, V domains shown, Murine IgG purified from hybridoma supernatant) VH: EVQLVESGGGLVQPKGSLKLSCAASGFTFNTYAMNWVRQAPGKGLEWIARIRSKSNNYATYYADSVKDRFTISRDDSQSLLYLQMNNLKTEDTAIFYCVTDYGYVYFDAWGAGTTVTVSS VL: NIIMTQSPKSMAMSVGERVTLSCKASENVGNYVSWYQQKPEQSPKLLIYGASYRYTGVPDRFTGSGSGTDFTLTISSVQAEDLADYHCGQSSRYPLTFGAGTKLELKR
Solution: 5 nM
